# Test system: PC3-CXCR4 xenograft tumors
# RUN DESCRIPTION: Biodistribution in mice bearing bilateral PC3-WT/PC3-CXCR4 xenograft tumors
# Assay type: in vivo, BALB/c mice
# ASSAY CONDITIONS: 1 h p.i.
Readings of Small Intestine tissue activity for the listed compounds
Numeric answer only, unit %ID/g assumed.

Prompt line: Quick one: Small Intestine tissue activity for FCCn1cc(-c2cc(CNCc3ccccn3)ccc2CN2CCCNCCNCCCNCC2)nn1 [RPS-533] ?
Response line: 2.19

Prompt line: Quick one: Small Intestine tissue activity for FCCn1cc(-c2cc(CN3CCCNCCNCCCNCC3)ccc2CNCc2ccccn2)nn1 [RPS-534] ?
Response line: 3.67

Prompt line: Quick one: Small Intestine tissue activity for FCCn1cc(CCNCc2ccc(CN3CCCNCCNCCCNCC3)cc2)nn1 [RPS-552] ?
Response line: 0.54

Prompt line: Quick one: Small Intestine tissue activity for FCCn1cc(CNCc2ccc(CN3CCCNCCNCCCNCC3)cc2)nn1 [RPS-547] ?
Response line: 0.95

###

# TARGET ENTITY: CXCR4 (Homo sapiens, UniProt P61073)
# Construct: expressed in transfected cells; host or cells: PC3 (human prostate cancer) cells stably transduced with CXCR4
# Sequence (P61073 whole entry): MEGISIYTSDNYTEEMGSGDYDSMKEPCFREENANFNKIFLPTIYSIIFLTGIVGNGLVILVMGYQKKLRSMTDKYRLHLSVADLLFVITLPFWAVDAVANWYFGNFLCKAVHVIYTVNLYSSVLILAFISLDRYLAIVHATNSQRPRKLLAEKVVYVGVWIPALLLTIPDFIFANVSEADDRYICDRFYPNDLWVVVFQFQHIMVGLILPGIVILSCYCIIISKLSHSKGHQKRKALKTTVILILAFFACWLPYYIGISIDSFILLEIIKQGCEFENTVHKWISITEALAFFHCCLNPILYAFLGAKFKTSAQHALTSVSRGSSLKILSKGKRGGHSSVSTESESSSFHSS
# RUN DESCRIPTION: Competition binding assay vs [^68Ga]Pentixafor in PC3-CXCR4 cells
# ASSAY CONDITIONS: vs [^68Ga]Pentixafor, value ± SD
Decide using Hill Slope, Competitive Binding Experiment: a value greater than or equal to 1 is yes (1), a smaller one is no (0).

Please review the following examples before continuing.
1. FCCn1cc(-c2cc(CN3CCCNCCNCCCNCC3)ccc2CN2CCCNCCNCCCNCC2)nn1 | yes (1)
2. FCCn1cc(CNCc2ccc(CN3CCCNCCNCCCNCC3)cc2)nn1 | no (0)
3. FCCn1cc(-c2cc(CNCc3ccccn3)ccc2CN2CCCNCCNCCCNCC2)nn1 | yes (1)
4. Fc1cccc(CNCc2ccc(CN3CCCNCCNCCCNCC3)cc2)n1 | yes (1)
5. FCCn1cc(NCc2ccc(CN3CCCNCCNCCCNCC3)cc2)nn1 | no (0)
6. FCCn1cc(-c2cc(CN3CCCNCCNCCCNCC3)ccc2CNCc2ccccn2)nn1 | yes (1)

Prompt line: Determine whether measured Hill Slope, Competitive Binding Experiment meets or exceeds 1 for "FCCn1cc(CCNCc2ccc(CN3CCCNCCNCCCNCC3)cc2)nn1"
Response line: yes (1)

###

# RUN DESCRIPTION: Biodistribution in mice bearing bilateral PC3-WT/PC3-CXCR4 xenograft tumors
# Type: in vivo, BALB/c mice
# ASSAY CONDITIONS: male, BALB/c athymic nude, mouse, PC3-CXCR4 tumor and liver, iv, total radioactivity, 1 h p.i.; read-out: PC3-CXCR4 Tumor-to-Tissue Ratio Liver
Non-standard residues stand in square brackets, D forms with d. Residues, ends and D or L forms follow the SMILES beside them. Groups on a side chain read outwards from the residue. *: point of attachment. DOTA = O=C(O)CN1CCN(CC(=O)O)CCN(CC(=O)*)CCN(CC(=O)O)CC1; 2Nal = N[C@@H](Cc1ccc2ccccc2c1)C(=O)O; dNMeOrn = CN[C@H](CCCN)C(=O)O; 4Amb = NCc1ccc(C(=O)O)cc1
ENDPOINT: tissue to tissue ratio at 1 h
Reply with just the number.

Prompt line: Quick one: tissue to tissue ratio at 1 h for CN1C(=O)[C@@H](Cc2ccc(O)cc2)NC(=O)CNC(=O)[C@H](Cc2ccc3ccccc3c2)NC(=O)[C@H](CCCNC(=N)N)NC(=O)[C@H]1CCCNC(=O)c1ccc(CNC(=O)CN2CCN(CC(=O)O)CCN(CC(=O)O)CCN(CC(=O)O)CC2)cc1 (68Ga complex, metal not drawn) [Pentixafor, reference compound] (cyclo([dY][dNMeOrn]([4Amb-DOTA])R[2Nal]G)) ?
Response line: 10.8
